Values compiled from patent US20160208330A1.

# reported CMII; entries follow
system: genes listed in Table 6 (CR marker panel), white adipose tissue; experiment: Testing ingredients for mimicry of caloric restriction: feeding study, RT-qPCR of the Table 6 gene panel in white adipose tissue, fold change as percentage of the fold change in the CR group; assay type: in vivo, C57BL/6J mice; conditions: mimetic index = average mimicry (fraction of CR) x number of significantly changed genes
Parameter: CMII

- Compound: "C[N+](C)(C)C[C@H](O)CC(=O)[O-]"
  Parameter: "CMII"
  Result: 2.2
- Compound: "CC(C)(Oc1ccc(CCNC(=O)c2ccc(Cl)cc2)cc1)C(=O)O [Bezafibrate, bezafibrate]"
  Parameter: "CMII"
  Result: 8.3
- Compound: "CN(C)C(=N)N=C(N)N"
  Parameter: "CMII"
  Result: 0.6
- Compound: "O=c1c(O)c(-c2ccc(O)c(O)c2)oc2cc(O)cc(O)c12"
  Parameter: "CMII"
  Result: 0.4
- Compound: "Oc1ccc(C=Cc2cc(O)cc(O)c2)cc1"
  Parameter: "CMII"
  Result: 1.38
